System: Lactuca sativa
test-name: Herbicidal activity against Lactuca sativa var.Roman (lettuce) assessed as inhibition of seed germination after 48 hr
Assay type: functional, organism-based
experimental-context: read-out: I50
readout-name: IC50 (µM)
Record the value in µM, omitting the unit from your answer.

| substance | reported-result |
| --- | --- |
| TRIS(2-THIENYL)BISMUTH | 49.7 |

The recorded IC50 for entry TRIS(2-FURYL)BISMUTH equals 16.1

The recorded IC50 for entry TRIS(1-METHYL-2-PYRROLYL)BISMUTH equals 34
